Data origin: patent US6465457B1

# System: Thanatephorus cucumeries (Rice)
# Method: Foliar fungal disease test on plants: Thanatephorus cucumeries (Rice)
# Type: in vivo
# Condition Summary: 100 ppm a.i. foliar spray or root drench (approx. 40 ppm in dry soil), one or two days before inoculation
Reported Endpoint: POCO (Percentage of Control) disease level, Thanatephorus cucumeries (Rice)

- Smiles Representation: "CO/C=C(/C(=O)OC)c1ccccc1COC(=O)Nc1ccccc1"
  Subject Of Test: "Thanatephorus cucumeries (Rice)"
  Value: "60 (60 = 30.1-60% disease present)"
- Smiles Representation: "COC=C(C(=O)OC)c1ccccc1COC(=O)N(C)c1ccccc1Cl"
  Subject Of Test: "Thanatephorus cucumeries (Rice)"
  Value: "0 (0 = 0% disease present)"
- Smiles Representation: "COC=C(C(=O)OC)c1ccccc1COC(=O)N(C)c1cccc(F)c1"
  Subject Of Test: "Thanatephorus cucumeries (Rice)"
  Value: "0 (0 = 0% disease present)"
- Smiles Representation: "COC=C(C(=O)OC)c1ccccc1COC(=O)Nc1ccccc1C#N"
  Subject Of Test: "Thanatephorus cucumeries (Rice)"
  Value: "5 (5 = 3.1-5% disease present)"

Next:
## Input Requested read-out: POCO (Percentage of Control) disease level, Thanatephorus cucumeries (Rice). Entry: `COC=C(C(=O)OC)c1ccccc1COC(=O)Nc1ccc(F)cc1F`
## Output 60 (60 = 30.1-60% disease present)

----------
I'd be grateful if you could share measured POCO (Percentage of Control) disease level, Phytophthora infestans (Tomatoes) for these entries.
# Tested on: Phytophthora infestans (Tomatoes)
# Type: in vivo
# Condition Summary: 100 ppm a.i. foliar spray or root drench (approx. 40 ppm in dry soil), one or two days before inoculation

The cases that follow already have their POCO (Percentage of Control) disease level, Phytophthora infestans (Tomatoes) on record.
- Compound: "COC=C(C(=O)OC)c1ccccc1COC(=O)N(C)c1ccc(F)c([N+](=O)[O-])c1 [105 (2)]"
  Value: "0 (0 = 0% disease present)"
- Compound: "CCN(C(=O)OCc1ccccc1C(=COC)C(=O)OC)c1c(F)cccc1F [23 (3)]"
  Value: "5 (5 = 3.1-5% disease present)"

Would you be so kind as to report POCO (Percentage of Control) disease level, Phytophthora infestans (Tomatoes) for each listed record?
1. COC=C(C(=O)OC)c1ccccc1COC(=S)Nc1cccc(C(F)(F)F)c1 [2 (6)]
2. COC=C(C(=O)OC)c1ccccc1COC(=O)N(C)c1ccccc1Cl [12 (2)]
3. COC=C(C(=O)OC)c1ccccc1COC(=O)N(C)c1cccc([N+](=O)[O-])c1 [6 (2)]
4. CCN(C(=O)OCc1ccccc1C(=COC)C(=O)OC)c1ccc(F)cc1F [24 (3)]
5. C=CCNC(=O)OCc1ccccc1C(=COC)C(=O)OC [20 (1)]
6. CCN(C(=O)OCc1ccccc1C(=COC)C(=O)OC)c1ccc(F)c([N+](=O)[O-])c1 [105 (3)]
7. COC=C(C(=O)OC)c1ccccc1COC(=O)N(C)c1ccccc1[N+](=O)[O-] [15 (2)]

## Output
1. 60 (60 = 30.1-60% disease present)
2. 5 (5 = 3.1-5% disease present)
3. 10 (10 = 5.1-10% disease present)
4. 60 (60 = 30.1-60% disease present)
5. 60 (60 = 30.1-60% disease present)
6. 0 (0 = 0% disease present)
7. 60 (60 = 30.1-60% disease present)

----------
# Test system: Septoria nodorum (Wheat)
# Method: Foliar fungal disease test on plants: Septoria nodorum (Wheat)
# Assay type: in vivo
# Condition Summary: 100 ppm a.i. foliar spray or root drench (approx. 40 ppm in dry soil), one or two days before inoculation
Reported Endpoint: POCO (Percentage of Control) disease level, Septoria nodorum (Wheat)

Worked cases, POCO (Percentage of Control) disease level, Septoria nodorum (Wheat) given:
- Smiles Representation: "CCN(C(=O)OCc1ccccc1C(=COC)C(=O)OC)c1ccc(F)c(Cl)c1"
  Value: "10 (10 = 5.1-10% disease present)"
- Smiles Representation: "COC=C(C(=O)OC)c1ccccc1COC(=O)N(C)c1cccc(F)c1"
  Value: "0 (0 = 0% disease present)"
- Smiles Representation: "COC=C(C(=O)OC)c1ccccc1OC(=O)Nc1ccccc1"
  Value: "60 (60 = 30.1-60% disease present)"

Attention now turns to another entry.
## Input Record request: POCO (Percentage of Control) disease level, Septoria nodorum (Wheat) value, item `COC=C(C(=O)OC)c1ccccc1COC(=O)N(C)c1cccc([N+](=O)[O-])c1`
## Output 0 (0 = 0% disease present)

----------
What POCO (Percentage of Control) disease level, Phytophthora infestans (Tomatoes) was measured for each of the following?
# Tested on: Phytophthora infestans (Tomatoes)
# Assay type: in vivo
# Condition Summary: 100 ppm a.i. foliar spray or root drench (approx. 40 ppm in dry soil), one or two days before inoculation

Known results for compounds:
- Smiles Representation: "COC=C(C(=O)OC)c1ccccc1COC(=O)Nc1ccccc1[N+](=O)[O-]"
  Value: "3 (3 = 1.1-3% disease present)"
- Smiles Representation: "COC=C(C(=O)OC)c1ccccc1COC(=O)Nc1ccc(OC)nc1"
  Value: "30 (30 = 20.1-30% disease present)"

Please examine the following record next.
## Input If you can, please state the reported POCO (Percentage of Control) disease level, Phytophthora infestans (Tomatoes) value of `COC=C(C(=O)OC)c1ccccc1COC(=O)N(C)c1ccc(F)c(F)c1` .
## Output 10 (10 = 5.1-10% disease present)

----------
# Tested on: Thanatephorus cucumeries (Rice)
# Method: Foliar fungal disease test on plants: Thanatephorus cucumeries (Rice)
# Type: in vivo
# Condition Summary: 100 ppm a.i. foliar spray or root drench (approx. 40 ppm in dry soil), one or two days before inoculation
Exercise: for every item that follows, state its recorded POCO (Percentage of Control) disease level, Thanatephorus cucumeries (Rice).

- Smiles Representation: "COC=C(C(=O)OC)c1ccccc1COC(=O)N(C)c1cccc(C(F)(F)F)c1"
  Value: "30 (30 = 20.1-30% disease present)"
- Smiles Representation: "COC=C(C(=O)OC)c1ccccc1COC(=O)N(C)c1ccc(F)c([N+](=O)[O-])c1"
  Value: "0 (0 = 0% disease present)"
- Smiles Representation: "COC=C(C(=O)OC)c1ccccc1COC(=O)N(C)c1ccccc1OC"
  Value: "5 (5 = 3.1-5% disease present)"

Batch lookup, POCO (Percentage of Control) disease level, Thanatephorus cucumeries (Rice) per entry.
1. COC=C(C(=O)OC)c1ccccc1COC(=O)N1CCSCC1
2. COC=C(C(=O)OC)c1ccccc1COC(=O)N(C)c1ccccc1F

## Output
["60 (60 = 30.1-60% disease present)", "0 (0 = 0% disease present)"]

----------
# Test system: Thanatephorus cucumeries (Rice)
# Method: Foliar fungal disease test on plants: Thanatephorus cucumeries (Rice)
# Assay type: in vivo
# Condition Summary: 100 ppm a.i. foliar spray or root drench (approx. 40 ppm in dry soil), one or two days before inoculation
Task for the reader: assign each of the following compounds its reported POCO (Percentage of Control) disease level, Thanatephorus cucumeries (Rice).

Some solved cases for reference:
- Smiles Representation: "CCN(C(=O)OCc1ccccc1C(=COC)C(=O)OC)c1ccccc1"
  Value: "5 (5 = 3.1-5% disease present)"
- Smiles Representation: "CCN(C(=O)OCc1ccccc1C(=COC)C(=O)OC)c1ccc(F)cc1"
  Value: "0 (0 = 0% disease present)"
- Smiles Representation: "COC=C(C(=O)OC)c1ccccc1OC(=O)NCc1ccccc1"
  Value: "0 (0 = 0% disease present)"
- Smiles Representation: "COC=C(C(=O)OC)c1ccccc1COC(=O)N(C)c1cccc([N+](=O)[O-])c1F"
  Value: "0 (0 = 0% disease present)"
- Smiles Representation: "CCN(C(=O)OCc1ccccc1C(=COC)C(=O)OC)c1ccc(F)cc1F"
  Value: "0 (0 = 0% disease present)"
- Smiles Representation: "CNC(=O)C(=NOC)c1ccccc1COC(=O)N(C)c1ccccc1"
  Value: "0 (0 = 0% disease present)"
- Smiles Representation: "C#CCN(C(=O)OCc1ccccc1C(=COC)C(=O)OC)c1ccccc1OC"
  Value: "0 (0 = 0% disease present)"
- Smiles Representation: "CCN(C(=O)OCc1ccccc1C(=COC)C(=O)OC)c1cccc([N+](=O)[O-])c1F"
  Value: "0 (0 = 0% disease present)"
- Smiles Representation: "CCN(C(=O)OCc1ccccc1C(=COC)C(=O)OC)c1ccc(F)c(Cl)c1"
  Value: "0 (0 = 0% disease present)"

## Input Find the recorded POCO (Percentage of Control) disease level, Thanatephorus cucumeries (Rice) belonging to `COC=C(C(=O)OC)c1ccccc1COC(=O)N(C)c1ccccc1C(F)(F)F` and report it.
## Output 60 (60 = 30.1-60% disease present)

----------
# Test system: Phytophthora infestans (Tomatoes)
# Type: in vivo
# Condition Summary: 100 ppm a.i. foliar spray or root drench (approx. 40 ppm in dry soil), one or two days before inoculation
Reported Endpoint: POCO (Percentage of Control) disease level, Phytophthora infestans (Tomatoes)

Consider the following illustrative entries.
- Smiles Representation: "CNC(=O)C(=NOC)c1ccccc1COC(=O)N(C)c1ccccc1"
  Value: "0 (0 = 0% disease present)"
- Smiles Representation: "COC=C(C(=O)OC)c1ccccc1COC(=O)N(C)c1ccccc1F"
  Value: "0 (0 = 0% disease present)"
- Smiles Representation: "COC=C(C(=O)OC)c1ccccc1COC(=O)N(C)c1ccc(F)c(Cl)c1"
  Value: "10 (10 = 5.1-10% disease present)"
- Smiles Representation: "COC=C(C(=O)OC)c1ccccc1COC(=O)N(C)c1cc(F)ccc1F"
  Value: "5 (5 = 3.1-5% disease present)"
- Smiles Representation: "CO/C=C(/C(=O)OC)c1ccccc1COC(=O)Nc1cccc(C(F)(F)F)c1"
  Value: "10 (10 = 5.1-10% disease present)"
- Smiles Representation: "COC=C(C(=O)OC)c1ccccc1COC(=O)N(C)c1ccc(F)cc1"
  Value: "0 (0 = 0% disease present)"
- Smiles Representation: "COC=C(C(=O)OC)c1ccccc1COC(=O)N(C)c1c(F)cccc1F"
  Value: "0 (0 = 0% disease present)"
- Smiles Representation: "COC=C(C(=O)OC)c1ccccc1COC(=O)N(C)c1ccc(F)cc1F"
  Value: "0 (0 = 0% disease present)"

Would you mind giving POCO (Percentage of Control) disease level, Phytophthora infestans (Tomatoes) for every molecule in the list below?
1. C#CCN(C(=O)OCc1ccccc1C(=COC)C(=O)OC)c1ccccc1OC
2. CO/C=C(/C(=O)OC)c1ccccc1COC(=O)Nc1ccccc1
3. CCN(C(=O)OCc1ccccc1C(=COC)C(=O)OC)c1ccc(F)c(Cl)c1
4. COC=C(C(=O)OC)c1ccccc1COC(=O)Nc1cccc([N+](=O)[O-])c1
5. CCN(C(=O)OCc1ccccc1C(=COC)C(=O)OC)c1ccccc1F

## Output
1: 5 (5 = 3.1-5% disease present); 2: 60 (60 = 30.1-60% disease present); 3: 10 (10 = 5.1-10% disease present); 4: 60 (60 = 30.1-60% disease present); 5: 0 (0 = 0% disease present)
